molecules and their reported pIC50
SYSTEM TESTED: Recombinant ROCK2 (amino acids 5-554) (Homo sapiens)
Construct: ROCK2 (amino acids 5-554)
MEASUREMENT PROTOCOL: ROCK inhibition assay, LANCE Ultra TR-FRET (ROCK2)
CONDITIONS: 1 mM of ATP
pIC50: −log10 of the molar value. Structures can show the parent of a compound that is named as a salt.

For orientation, consider the following solved cases.
CCN(CC)CCn1cc(C(=O)[C@@H]2COc3ccc(OC)cc3C2)c2ccc(-c3cn[nH]c3Cl)cc21 [Compound 3-20]	> 7.70
CN(C)CCn1cc(C(=O)C2COc3ccc(Cl)cc3C2)c2cnc(-c3c[nH]nc3Cl)cc21 (stereo not drawn)	< 6.30
CCN1CC[C@@H]1Cn1cc(C(=O)C2COc3ccc(OC)cc3C2)c2ccc(-c3cn[nH]c3OC)cc21 (stereo partly drawn)	6.70 to 7.68
CN(C)CCn1cc(C(=O)[C@@H]2COc3ccc(F)cc3C2)c2ccc(-c3c[nH]nc3Cl)cc21	> 7.70
CCN(CCn1cc(C(=O)[C@@H]2COc3ccc(OC)cc3C2)c2ccc(-c3c[nH]nc3Cl)cc21)CC(F)(F)F	6.70 to 7.68
CNCCn1cc(C(=O)C2COc3ccc(Cl)cc3C2)c2ccc(-c3cn[nH]c3Cl)cc21 (stereo not drawn)	6.30 to 6.70
COc1n[nH]cc1-c1ccc2c(C(=O)[C@@H]3COc4ccc(Cl)cc4C3)nn(CCN(C)C)c2c1	> 7.70
COc1[nH]ncc1-c1cc2c(cn1)c(C(=O)C1COc3ccc(Cl)cc3C1)cn2CCN(C)C (stereo not drawn) [Compound 1-2, dihydrochloride]	6.70 to 7.68
O=C(c1cn(CC2CCN2)c2cc(-c3cn[nH]c3Cl)ccc12)C1COc2ccc(Cl)cc2C1 (stereo not drawn)	6.70 to 7.68
CN1CC[C@H]1Cn1nc(C(=O)[C@@H]2COc3ccc(F)cc3C2)c2ccc(-c3c[nH]nc3F)cc21	> 7.70

Exercise: Sample COc1ccc2c(c1)CC(C(=O)c1nn(CCN(C)C)c3cc(-c4c[nH]nc4Cl)ccc13)CCO2 (stereo not drawn) — what was its pIC50?
Solution: < 6.30

Exercise: Then this molecule: COc1ccc2c(c1)CC(C(=O)c1cn(CC3(N)CC3)c3cc(-c4cn[nH]c4Cl)ccc13)CO2 (stereo not drawn)
Solution: > 7.70

Exercise: Then this molecule: CN(C)CCn1cc(C(=O)C2COc3ccc(Cl)cc3C2)c2ccc(-c3ccnn3C)cc21 (stereo not drawn)
Solution: < 6.30

Exercise: Then this molecule: CN(C)CCn1nc(C(=O)C2COc3ccc(F)cc3C2)c2ccc(-c3c[nH]nc3Cl)cc21 (stereo not drawn)
Solution: > 7.70

Exercise: Then this molecule: `CCN(CCF)CCn1cc(C(=O)[C@@H]2COc3ccc(OC)cc3C2)c2ccc(-c3c[nH]nc3Cl)cc21`
Solution: 6.70 to 7.68

----------
SYSTEM TESTED: Recombinant ROCK2 (amino acids 5-554) (Homo sapiens, UniProt O75116)
Construct: ROCK2 (amino acids 5-554)
Sequence (O75116 5-554): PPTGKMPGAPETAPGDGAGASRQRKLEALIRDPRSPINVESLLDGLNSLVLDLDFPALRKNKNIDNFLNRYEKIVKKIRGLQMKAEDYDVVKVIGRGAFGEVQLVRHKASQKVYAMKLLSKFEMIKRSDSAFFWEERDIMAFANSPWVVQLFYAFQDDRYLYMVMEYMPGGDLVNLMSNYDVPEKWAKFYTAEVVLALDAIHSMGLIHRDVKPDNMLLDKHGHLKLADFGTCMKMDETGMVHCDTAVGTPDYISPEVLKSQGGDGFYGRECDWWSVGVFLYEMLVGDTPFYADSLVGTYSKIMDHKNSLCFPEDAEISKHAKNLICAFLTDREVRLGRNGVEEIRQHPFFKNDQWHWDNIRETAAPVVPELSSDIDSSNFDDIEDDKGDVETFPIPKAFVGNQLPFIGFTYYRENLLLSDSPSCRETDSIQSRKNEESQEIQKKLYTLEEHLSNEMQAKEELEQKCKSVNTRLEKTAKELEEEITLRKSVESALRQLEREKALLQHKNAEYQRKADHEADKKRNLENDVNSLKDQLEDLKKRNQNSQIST
MEASUREMENT PROTOCOL: ROCK inhibition assay, LANCE Ultra TR-FRET (ROCK2)
CONDITIONS: 1 mM of ATP
Description: Kinase IC50 was determined through an in vitro assay based on LANCE Ultra TR-FRET (Time-Resolved Fluorescence Resonance Energy Transfer) homogeneous technologies method 5 (Perkin Elmer). […] Compound activities were measured by Envision and IC50s were calculated. […] The reaction was incubated for 1 hour, and the signal was read in Envision in TR-FRET mode (excitation at 320 nm and emission at 615/665 nm). […]
pIC50: −log10 of the molar value.
compounds and their reported pIC50

For orientation, consider the following solved cases.
CCN(CC)CCn1cc(C(=O)C2COc3ccc(OC)cc3C2)c2ccc(-c3cn[nH]c3Cl)cc21 (stereo not shown)	6.70 to 7.68
CN(C)CCn1cc(C(=O)C2COc3ccc(F)cc3O2)c2ccc(-c3c[nH]nc3Cl)cc21 (stereo not shown)	6.30 to 6.70
O=C(c1cn(CC2CNC2)c2cc(-c3cn[nH]c3Cl)ccc12)C1COc2ccc(Cl)cc2C1 (stereo not shown)	> 7.70
CN(C)CCn1cc(C(=O)C2COc3ccccc3O2)c2ccc(-c3cn[nH]c3)cc21 (stereo not shown)	6.30 to 6.70

Exercise: Sample O=C(c1cn(C[C@H]2CCN2)c2cc(-c3cn[nH]c3F)ccc12)C1COc2ccc(Cl)cc2C1 (stereo partly shown) — what was its pIC50?
Solution: > 7.70

Exercise: Then this compound: COc1[nH]ncc1-c1ccc2c(C(=O)C3COc4ccc(Cl)cc4C3)cn(C[C@@H]3CCCN3C)c2c1 (stereo partly shown)
Solution: 6.70 to 7.68

Exercise: Then this compound: CN(C)CCn1cc(C(=O)C2COc3ccc(F)cc3C2)c2cnc(-c3c[nH]nc3Cl)cc21 (stereo not shown)
Solution: 6.30 to 6.70
